Test system: NOTCH target gene HES1
Assay Text: NOTCH target gene HES1 downregulation in RPMI 8402 cells
Assay type: cell-based, human
Design: concentration or dose not given beside the values
Measurement Context: RPMI 8402 cells (NOTCH1 positive, EBV negative)
Exercise: for every item that follows, state its recorded Percentage inhibition of NOTCH target gene HES1.
Numeric only. Scale: %

The reported Percentage inhibition of NOTCH target gene HES1 of the compound CC(C)(C)c1ccc(Oc2ccc(N)cn2)cc1 [6-(4-tert-Butylphenoxy)pyridin-3-amine, reference compound] was 80

The reported Percentage inhibition of NOTCH target gene HES1 of the compound CC(C)(C)c1ccc(Oc2ccc(NCc3c[nH]cn3)cn2)cc1 [Example 10] was 0

The reported Percentage inhibition of NOTCH target gene HES1 of the compound CC(C)(C)c1ccc(Oc2ccc(NCc3cnc(N)nc3)cn2)cc1 [Example 5] was 0

The reported Percentage inhibition of NOTCH target gene HES1 of the compound CC(C)(C)c1ccc(Oc2ccc(NCc3cccnc3)cn2)cc1 [Example 2] was 0

The reported Percentage inhibition of NOTCH target gene HES1 of the compound CC(C)(C)c1ccc(Oc2ccc(NCc3ccccn3)cn2)cc1 [Example 3] was 0

The reported Percentage inhibition of NOTCH target gene HES1 of the compound CC(C)(C)c1ccc(Oc2ccc(NCc3ccncc3)cn2)cc1 [Example 1] was 0

====

Test system: RUNX3
Assay Text: EBV target gene downregulation (qPCR) in HG-3 cells: RUNX3
Format: cell-based
Measurement Context: Homo sapiens, mRNA by qPCR, Table 2
Method: One million human EBV positive lymphoma cell lines HG3 and LCL070903 (Rosén et al., 2012) were cultured in RPMI1640 media supplemented with 10% FCS. […] In first protocol, SuperScript™ RT (Invitrogen) was used for reverse transcription reaction. RNA concentration was measured using NanoDrop®ND-1000 spectrophotometer (Witec AG) and 500 ng of total RNA was mixed with a 10 mM mix of dNTPs and 100 ng of random primers. […]
Exercise: for every item that follows, state its recorded inhibition at 10 µM.
Numeric only. Scale: %

The reported inhibition at 10 µM of the compound `CC(C)(C)c1ccc(Oc2ccc(NCc3ccncc3)cn2)cc1` was 27

The reported inhibition at 10 µM of the compound `CC(C)(C)c1ccc(Oc2ccc(NCc3c[nH]cn3)cn2)cc1` was 37

The reported inhibition at 10 µM of the compound `CC(C)(C)c1ccc(Oc2ccc(NCc3ccccn3)cn2)cc1` was 55

The reported inhibition at 10 µM of the compound `CC(C)(C)c1ccc(Oc2ccc(NCc3cnc(N)nc3)cn2)cc1` was 57

Entry source: patent US20220185793A1
